TARGET_UNDER_TEST: full-length WT STING (Homo sapiens, UniProt Q86WV6, H232R)
Construct: AviTag (after gg linker) (C); HRV3C cleavage site (after gs linker) (C); HIS8 (C); made in house; host or cells: Trichoplusia ni (Hi-Five) insect cells infected with baculovirus (virus generated and amplified in Sf21 cells); used as a washed membrane preparation
Sequence (Q86WV6 with tags, fused parts or gaps H232R): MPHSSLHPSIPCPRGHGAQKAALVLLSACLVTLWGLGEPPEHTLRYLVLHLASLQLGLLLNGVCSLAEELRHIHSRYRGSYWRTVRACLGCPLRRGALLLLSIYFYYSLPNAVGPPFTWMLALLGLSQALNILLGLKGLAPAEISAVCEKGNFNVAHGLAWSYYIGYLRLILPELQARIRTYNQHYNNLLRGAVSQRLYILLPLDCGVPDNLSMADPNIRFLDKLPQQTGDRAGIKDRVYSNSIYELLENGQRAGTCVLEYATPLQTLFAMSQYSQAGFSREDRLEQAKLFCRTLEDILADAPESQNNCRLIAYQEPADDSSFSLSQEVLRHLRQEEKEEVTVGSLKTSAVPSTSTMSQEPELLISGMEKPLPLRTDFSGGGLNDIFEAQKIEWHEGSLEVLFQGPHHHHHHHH
TEST_DESCRIPTION: 3H-cGAMP filtration binding assay (WT STING)
CONDITION_CONTEXT: competition with tritiated cGAMP, WT STING membrane
Measured EC50, listed per entry for reference.

COMPOUND | EC50, nM
COc1cc2sc(C(=O)C[C@H](C)C(=O)O)cc2cc1OCCCCCOc1c(OC)cc2sc(C(=O)C[C@H](C)C(=O)O)cc2c1F | 371
COc1cc2sc(C(=O)C[C@H](C)C(=O)O)cc2c(F)c1OCCCC(C)Oc1c(OC)cc2sc(C(=O)C[C@H](C)C(=O)O)cc2c1F (stereo partly shown) | 12
COc1cc2sc(C(=O)C[C@H](C)C(=O)O)cc2c(F)c1OCCC(C)Oc1c(OC)cc2sc(C(=O)C[C@H](C)C(=O)O)cc2c1F (stereo partly shown) | 2
COc1cc2sc(C(=O)C[C@H](C)C(=O)O)cc2cc1CCCOc1nc2cc(C(=O)C[C@H](C)C(=O)O)sc2cc1OC | 51
COc1cc2sc(CC[C@H](C)C(=O)O)cc2c(F)c1OCCCOc1c(OC)cc2sc(CC[C@H](C)C(=O)O)cc2c1F | 4240
COc1cc2sc(C(=O)C[C@@H](C)C(=O)O)cc2cc1OCCOc1c(OC)cc2sc(C(=O)C[C@H](C)C(=O)O)cc2c1F | 20
COc1cc2cc(C(=O)CCC(=O)O)sc2cc1OCCCc1cc2cc(C(=O)CCC(=O)O)sc2cc1C | 17100
COc1cc2sc(C(=O)C[C@H](C)C(=O)O)cc2c(F)c1OCCCCCOc1c(OC)cc2sc(C(=O)C[C@H](C)C(=O)O)cc2c1F | 698
COc1cc2sc(C(=O)[C@H]3C[C@@H]3C(=O)O)cc2c(F)c1OCCCOc1c(OC)cc2sc(C(=O)[C@@H]3C[C@H]3C(=O)O)cc2c1F | 1920
COc1cc2sc(C(=O)C[C@H](C)C(=O)O)cc2cc1CCCOc1c(OC)cc2sc(C(=O)[C@@H]3CCC3C(=O)O)cc2c1F (stereo partly shown) | 23
COc1cc2sc(C(=O)C[C@H](C)C(=O)O)cc2cc1OCCCOc1c(OC)cc2sc(C(=O)CCC(=O)O)cc2c1F | 2
COc1cc2sc(C(=O)C[C@H](C)C(=O)O)cc2c(F)c1CCCOc1c(OC)cc2sc(CC[C@H](C)C(=O)O)cc2c1F | 311
COc1cc2sc(C(=O)CCC(=O)O)cc2cc1CCCOc1cc2sc(C(=O)CCC(=O)O)cc2cc1OC | 6310
